Provide the reported Lym of each item.
# Species on record: Rattus norvegicus
# experimental-details: Open TG-GATES - Regimen: Single
# Assay type: toxicity, organism-based, Sprague-Dawley
# Set-up: regimen Single, gender Male, age 6 weeks
# run-conditions: in vivo, po, 100 mg/kg, 3 h, tissue Blood, route gavage, dose level Low
Dear colleague, please send the value followed by its unit.

Lab note: CN/C(=N/CCSCc1nc[nH]c1C)NC#N [CIMETIDINE] gave Lym of 78.6%

Lab note: measured Lym of O=C(OC[C@H]1O[C@@H](OC(=O)c2cc(O)c(O)c(OC(=O)c3cc(O)c(O)c(O)c3)c2)[C@H](OC(=O)c2cc(O)c(O)c(OC(=O)c3cc(O)c(O)c(O)c3)c2)[C@@H](OC(=O)c2cc(O)c(O)c(OC(=O)c3cc(O)c(O)c(O)c3)c2)[C@@H]1OC(=O)c1cc(O)c(O)c(OC(=O)c2cc(O)c(O)c(O)c2)c1)c1cc(O)c(O)c(OC(=O)c2cc(O)c(O)c(O)c2)c1 [TANNIC ACID] was 82%

Source of measurements: ChEMBL document CHEMBL3885861
